For each record, write down the corresponding tissue uptake at 4 h.
assay: Ex vivo biodistribution of 177Lu-labeled ligands in PC-3 tumor-bearing mice; details: mouse, large intestine, intravenous, 4 h pi, n = 5; read-out: Large intestine uptake

* CC(C)C[C@@H](CN1CC(F)(F)C[C@H]1C(N)=O)NC(=O)[C@H](Cc1c[nH]cn1)NC(=O)CN(C)C(=O)[C@@H](NC(=O)[C@H](C)NC(=O)[C@H](Cc1c[nH]c2ccccc12)NC(=O)[C@H](CCC(N)=O)NC(=O)[C@@H](Cc1ccccc1)NC(=O)CN1CCC(NC(=O)CN2CCN(CC(=O)O)CCN(CC(=O)O)CCN(CC(=O)O)CC2)CC1)C(C)C [[^177Lu]Lu-LW02080, metal not drawn] | 0.34 %ID/g

# lookup: tissue uptake at 4 h of CC(C)C[C@H](NC(=O)[C@H](Cc1cnc[nH]1)N(C)C(=O)CNC(=O)[C@@H](NC(=O)[C@H](C)NC(=O)[C@H](Cc1c[nH]c2ccccc12)NC(=O)[C@H](CCC(N)=O)NC(=O)[C@@H](Cc1ccccc1)NC(=O)CN1CCC(NC(=O)CN2CCN(CC(=O)O)CCN(CC(=O)O)CCN(CC(=O)O)CC2)CC1)C(C)(C)C)C(=O)N1CC(F)(F)C[C@H]1C(N)=O [[^177Lu]Lu-LW02060, metal not drawn]
0.68 %ID/g

====

experiment: Ex vivo biodistribution of 177Lu-labeled ligands in PC-3 tumor-bearing mice; settings: mouse, bone, intravenous, 120 h pi, n = 5; read-out: Bone uptake
For each record, write down the corresponding tissue uptake at 120 h.
A complete answer gives the number followed by the unit.

* CC(C)C[C@@H](CN1CC(F)(F)C[C@H]1C(N)=O)NC(=O)[C@H](Cc1c[nH]cn1)NC(=O)CN(C)C(=O)[C@@H](NC(=O)[C@H](C)NC(=O)[C@H](Cc1c[nH]c2ccccc12)NC(=O)[C@H](CCC(N)=O)NC(=O)[C@@H](Cc1ccccc1)NC(=O)CN1CCC(NC(=O)CN2CCN(CC(=O)O)CCN(CC(=O)O)CCN(CC(=O)O)CC2)CC1)C(C)C [[^177Lu]Lu-LW02080, metal not drawn] | 0.01 %ID/g

# lookup: tissue uptake at 120 h of CC(C)C[C@H](NC(=O)[C@H](Cc1cnc[nH]1)N(C)C(=O)CNC(=O)[C@@H](NC(=O)[C@H](C)NC(=O)[C@H](Cc1c[nH]c2ccccc12)NC(=O)[C@H](CCC(N)=O)NC(=O)[C@@H](Cc1ccccc1)NC(=O)CN1CCC(NC(=O)CN2CCN(CC(=O)O)CCN(CC(=O)O)CCN(CC(=O)O)CC2)CC1)C(C)(C)C)C(=O)N1CC(F)(F)C[C@H]1C(N)=O [[^177Lu]Lu-LW02060, metal not drawn]
0.02 %ID/g

====

For each record, write down the corresponding tissue uptake at 120 h.
test: Ex vivo biodistribution of 177Lu-labeled ligands in PC-3 tumor-bearing mice; settings: mouse, small intestine, intravenous, 120 h pi, n = 5; read-out: Small intestine uptake
A complete answer gives the number followed by the unit.

- CC(C)C[C@H](NC(=O)[C@H](Cc1cnc[nH]1)N(C)C(=O)CNC(=O)[C@@H](NC(=O)[C@H](C)NC(=O)[C@H](Cc1c[nH]c2ccccc12)NC(=O)[C@H](CCC(N)=O)NC(=O)[C@@H](Cc1ccccc1)NC(=O)CN1CCC(NC(=O)CN2CCN(CC(=O)O)CCN(CC(=O)O)CCN(CC(=O)O)CC2)CC1)C(C)(C)C)C(=O)N1CC(F)(F)C[C@H]1C(N)=O [[^177Lu]Lu-LW02060, metal not drawn]: 0.02 %ID/g

Now for a further compound.
# lookup: tissue uptake at 120 h of CC(C)C[C@@H](CN1CC(F)(F)C[C@H]1C(N)=O)NC(=O)[C@H](Cc1c[nH]cn1)NC(=O)CN(C)C(=O)[C@@H](NC(=O)[C@H](C)NC(=O)[C@H](Cc1c[nH]c2ccccc12)NC(=O)[C@H](CCC(N)=O)NC(=O)[C@@H](Cc1ccccc1)NC(=O)CN1CCC(NC(=O)CN2CCN(CC(=O)O)CCN(CC(=O)O)CCN(CC(=O)O)CC2)CC1)C(C)C [[^177Lu]Lu-LW02080, metal not drawn]
0.01 %ID/g

meta.source: paper PMC11859184
